Source listed as patent US20190352276A1.

System: Z-138 (mantle cell lymphoma)
protocol-summary: Antiproliferative activity, Z-138 cells (Alamar Blue)
Assay type: cell-based
run-conditions: Homo sapiens, Table 10, 72 h, average of several tests
Hi! Could you tag entries with IC50 below 10 µM as true (1), and those at or above as false (0)? Much appreciated.

[
  {
    "smiles-code": "C=CC(=O)N1CCC[C@@H](n2nc(-c3ccc(C(=O)Nc4ccc(F)cn4)cc3)c3cncc(Cl)c32)C1",
    "class-label": "false (0)"
  },
  {
    "smiles-code": "C=CC(=O)N1CCC[C@@H](n2nc(-c3ccc(C(=O)Nc4cc(C(F)(F)CC)ccn4)cc3)c3c(N)ncc(Cl)c32)C1",
    "class-label": "true (1)"
  },
  {
    "smiles-code": "CC#CC(=O)N1CCC[C@H]1Cn1nc(-c2ccc(Oc3ccncc3)cc2)c2cncc(Cl)c21",
    "class-label": "false (0)"
  },
  {
    "smiles-code": "C=CC(=O)N1CCC[C@@H](n2nc(-c3ccc(Oc4ccncc4)cc3)c3cncc(F)c32)C1",
    "class-label": "false (0)"
  },
  {
    "smiles-code": "CC#CC(=O)N1CCC[C@@H](n2nc(-c3ccc(C(=O)Nc4ccccn4)cc3)c3c(N)ncc(Cl)c32)C1",
    "class-label": "true (1)"
  },
  {
    "smiles-code": "C=CC(=O)N1CCC[C@@H](n2nc(-c3ccc(C(=O)Nc4ncccc4F)cc3)c3cncc(Cl)c32)C1",
    "class-label": "true (1)"
  },
  {
    "smiles-code": "CC#CC(=O)N1CC(n2nc(-c3ccc(Oc4ccncc4)cc3)c3cncc(Cl)c32)C1",
    "class-label": "true (1)"
  },
  {
    "smiles-code": "C=CC(=O)Oc1cc(C#N)c2c(c1)c(-c1ccc(-n3ccc(=O)cc3)cc1)nn2[C@@H]1CCCN(C(=O)C=C)C1",
    "class-label": "true (1)"
  },
  {
    "smiles-code": "C=CC(=O)N1CCC[C@@H](n2nc(-c3ccc(Oc4ccncc4C(N)=O)cc3)c3cncc(Cl)c32)C1",
    "class-label": "false (0)"
  },
  {
    "smiles-code": "C=CC(=O)N1CCC[C@@H](n2nc(-c3ccc(Oc4cccnc4C(N)=O)cc3)c3cncc(Cl)c32)C1",
    "class-label": "false (0)"
  },
  {
    "smiles-code": "C=CC(=O)N1CCC[C@@H](n2nc(-c3ccc(C(=O)Nc4ccc(F)cn4)cc3)c3c(N)ncc(Cl)c32)C1",
    "class-label": "true (1)"
  },
  {
    "smiles-code": "C=CC(=O)N1CCC[C@@H](n2nc(-c3ccc(C(=O)Nc4cc(C(F)(F)CCC)ccn4)cc3)c3cncc(C#N)c32)C1",
    "class-label": "false (0)"
  },
  {
    "smiles-code": "C=CC(=O)N1CCC[C@@H](n2nc(-c3ccc(-n4ccc(=O)cc4)nc3)c3cncc(Cl)c32)C1",
    "class-label": "false (0)"
  },
  {
    "smiles-code": "C=CC(=O)N1CCC[C@@H](n2nc(-c3ccc(Oc4ccncc4C#N)cc3)c3cncc(C#N)c32)C1",
    "class-label": "true (1)"
  },
  {
    "smiles-code": "C=CC(=O)N1CCC[C@@H](n2nc(-c3ccc(Oc4ccncc4)cc3)c3c(N)nccc32)C1",
    "class-label": "false (0)"
  },
  {
    "smiles-code": "C=CC(=O)N1CCC[C@@H](n2nc(-c3ccc(C(=O)Nc4ccccn4)cc3)c3c(N)nccc32)C1",
    "class-label": "false (0)"
  },
  {
    "smiles-code": "C=CC(=O)N1CCC[C@@H](n2nc(-c3ccc(Oc4cccnc4C#N)cc3)c3cncc(C#N)c32)C1",
    "class-label": "false (0)"
  },
  {
    "smiles-code": "C=CC(=O)N1CCC[C@@H](n2nc(-c3cnc(C(=O)Nc4cc(C(F)(F)CCC)ccn4)nc3)c3cncc(Cl)c32)C1",
    "class-label": "false (0)"
  },
  {
    "smiles-code": "C=CC(=O)N1CCC[C@@H](n2nc(-c3ccc(C(=O)Nc4cc(C(F)(F)CCC)ccn4)cc3)c3c(N)ncc(Cl)c32)C1",
    "class-label": "true (1)"
  },
  {
    "smiles-code": "C=CC(=O)N1CCC[C@@H](n2nc(-c3ccc(Oc4ccncc4)cc3)c3cncc(C(N)=O)c32)C1",
    "class-label": "false (0)"
  },
  {
    "smiles-code": "C=CC(=O)N1CCC[C@@H](n2nc(-c3ccc(-n4ccc(=O)cc4)cc3)c3cncc(Cl)c32)C1",
    "class-label": "false (0)"
  },
  {
    "smiles-code": "C=CC(=O)N1CCC[C@@H](n2nc(-c3ccc(C(=O)Nc4ccccn4)cc3)c3c(N)ncc(OC)c32)C1",
    "class-label": "false (0)"
  },
  {
    "smiles-code": "C=CC(=O)N1CCC[C@@H](n2nc(-c3cnc(C(=O)Nc4ccccn4)nc3)c3cncc(Cl)c32)C1",
    "class-label": "false (0)"
  },
  {
    "smiles-code": "C=CC(=O)N1CCC[C@@H](n2nc(-c3ccc(Oc4cccnc4C#N)cc3)c3c(N)ncc(Cl)c32)C1",
    "class-label": "false (0)"
  },
  {
    "smiles-code": "CC#CC(=O)N1CC[C@H](n2nc(-c3ccc(Oc4ccncc4)cc3)c3cncc(Cl)c32)C1",
    "class-label": "false (0)"
  },
  {
    "smiles-code": "C=CC(=O)N1CCC[C@H]1Cn1nc(-c2ccc(Oc3ccncc3)cc2)c2cncc(Cl)c21",
    "class-label": "false (0)"
  },
  {
    "smiles-code": "C=CC(=O)N1CCC[C@@H](n2nc(-c3ccc(Oc4cncc(C(N)=O)c4)cc3)c3cncc(F)c32)C1",
    "class-label": "false (0)"
  },
  {
    "smiles-code": "C=CC(=O)N1CCC[C@@H](n2nc(-c3ccc(Oc4cccnc4C#N)cc3)c3cncc(Cl)c32)C1",
    "class-label": "true (1)"
  }
]
